test system: IL-6-GFP PC-9GR; assay: cell viability (CCK-8 OD) relative to DMSO control (fraction of control); higher = more viable cells; conditions: compound concentration: 10 uM; treatment time: 48 h
readout: cell viability

Ask: Enter recorded cell viability with IL-6-GFP PC-9GR for Cc1ccc(Nc2nccc(N(C)c3ccc4c(C)n(C)nc4c3)n2)cc1S(N)(=O)=O here.
Reply: 0.795

Ask: Give reported cell viability for C=CC(=O)Nc1cc(Nc2nccc(-c3cn(C)c4ccccc34)n2)c(OC)cc1N(C)CCN(C)C (IL-6-GFP PC-9GR)
Reply: 0.225

Ask: Please look at N#Cc1ccc(C2CCCc3cncn32)cc1 (stereo not given) and tell me its recorded cell viability on IL-6-GFP PC-9GR.
Reply: 0.665

Ask: For IL-6-GFP PC-9GR, give cell viability of the listed molecule: Nc1nc(Cl)nc2c1ncn2C1OC(CO)C(O)C1F (stereo not given)
Reply: 0.5

Ask: Give IL-6-GFP PC-9GR cell viability for the following molecule: CC(CN1c2ccccc2Sc2ccccc21)N(C)C.Cl (stereo not given) [Promethazine HCl]
Reply: 0.929

Ask: Please report cell viability with IL-6-GFP PC-9GR for item Cl.O=C(OCC(O)CO)c1ccccc1Nc1ccnc2cc(Cl)ccc12 (stereo not given) [Glafenine HCl] .
Reply: 1.04

Ask: Report its cell viability with IL-6-GFP PC-9GR as the test system: O=c1oc2cc(O)ccc2s1
Reply: 1.06

Ask: Fill in: cell viability on IL-6-GFP PC-9GR, entry CC1CC2C3CCC4=CC(=O)C=CC4(C)C3(F)C(O)CC2(C)C1(O)C(=O)CO (stereo not given)
Reply: 1.24

Ask: Name the recorded cell viability of Cn1c(=O)cc(N2CCCC(N)C2)n(Cc2cc(F)ccc2C#N)c1=O (stereo not given) , assay system IL-6-GFP PC-9GR.
Reply: 1.09

Ask: Fetch value of cell viability on IL-6-GFP PC-9GR for CC1(C(=O)O)CCC2(C)CCC3(C)C(=CC(=O)C4C5(C)CCC(OC6OC(C(=O)O)C(O)C(O)C6OC6OC(C(=O)O)C(O)C(O)C6O)C(C)(C)C5CCC43C)C2C1 (stereo not given) .
Reply: 1.47

Ask: Provide measured cell viability on IL-6-GFP PC-9GR for COC(=O)NC(C(=O)N1CCCC1c1ncc(-c2ccc3c(c2)OC(c2ccccc2)n2c-3cc3cc(-c4cnc(C5CCCN5C(=O)C(NC(=O)OC)C(C)C)[nH]4)ccc32)[nH]1)C(C)C (stereo not given) please.
Reply: 0.497

Ask: Give measured cell viability for COc1nc2ccc(Br)cc2cc1C(c1ccccc1)C(O)(CCN(C)C)c1cccc2ccccc12.O=C(O)/C=C/C(=O)O (stereo not given) [Bedaquiline fumarate] (IL-6-GFP PC-9GR).
Reply: 1.18

Ask: Report cell viability from IL-6-GFP PC-9GR testing of CCC(=O)OC1(C(=O)CCl)C(C)CC2C3CC(F)C4=CC(=O)C=CC4(C)C3(F)C(O)CC21C (stereo not given) [Halobetasol Propionate]
Reply: 0.859

Ask: Look up and report cell viability, with IL-6-GFP PC-9GR as system, for CCC(C)C(=O)OC1CC(O)C=C2C=CC(C)C(CCC(O)CC(O)CC(=O)O)C21 (stereo not given)
Reply: 1.48

Ask: Quote IL-6-GFP PC-9GR cell viability for entry CNCc1ccc(-c2[nH]c3cc(F)cc4c3c2CCNC4=O)cc1.O=P(O)(O)O .
Reply: 0.93
